Experiment: NCI Yeast Anticancer Drug Screen. Data for the mec2-1 strain (AID 157)
Conditions: S. cerevisiae mec2-1 strain, at 50.0 µM, active compounds read high
Compounds without any hit were thinned out: in the full panel of roughly 79,000, 15% have a hit. The source made the active and inactive calls. Rule as the data show it: active = growth inhibition above about 70%; inactive = the rest.
Each entry below carries its reported growth inhibition.

{"molecule": "O=NN(CCF)C(=O)NCCO", "growth inhibition": "-7.3% (inactive)"}
{"molecule": "CCCCCCOC(=O)C(N)Cc1ccc(OC)c(N(CCCl)CCCl)c1 (configuration not stated)", "growth inhibition": "3.65% (inactive)"}
{"molecule": "CCCCCCCCOC(=O)c1ccccc1C(=O)OCCCCCCCC", "growth inhibition": "-3.35% (inactive)"}

Request: Returns the measured growth inhibition for the input molecule. Input: O=C(COc1ccc(Cl)c(Cl)c1)NCCc1cc[n+](Cc2ccc(Cl)cc2S(=O)(=O)F)cc1
Result: 5.4% (inactive)

Request: Suppose we examine the molecule CC(=O)OC1[C@H](n2ccnc2)C[C@H]2[C@@H]3CC=C4CC(N5CCCC5)CC[C@]4(C)[C@H]3CC[C@]12C (some centres not stated) ; what growth inhibition value has been reported?
Result: -9.1% (inactive)

Request: Tell me the measured growth inhibition of COc1cc(CC(C)N)ccc1O (configuration not stated) , please.
Result: -9.4% (inactive)

Request: // query growth inhibition value for entry CCOP(O)(=S)OCC.[Yb]
Result: -2.45% (inactive)

Request: Entry under review: COC(=O)C1=C(N2CCCC2)C2c3ccccc3SC12C(=O)OC (configuration not stated) . Reported growth inhibition?
Result: 10.8% (inactive)

Request: Look up growth inhibition for this molecule: CCCCCCC[CH2][Sn][CH2]CCCCCCC.Nc1ncnc2c1ncn2C1OC(CO)C2[OH+][OH+]C21 (configuration not stated)
Result: 5.45% (inactive)

Request: Consider the molecule N/N=C(\N)c1nn[nH]n1 and give its measured growth inhibition.
Result: -12.4% (inactive)

Request: Entry CCN(CC)c1cc[c]([Hg][O]C(C)=O)cc1 has what growth inhibition?
Result: 99% (active)

Request: # query: growth inhibition of entry CC(C)N(C(=O)SCC(Cl)=C(Cl)Cl)C(C)C
Result: -15.8% (inactive)

Request: Record request: growth inhibition value, item C/C(=N\NC(N)=O)C(CN(C)C)C(c1ccccc1)c1c(O)c2ccccc2oc1=O (configuration not stated)
Result: 21.1% (inactive)

Request: So what's the measured growth inhibition for this one? Cn1c(=S)[nH]n(CCOc2ccccc2)c1=S
Result: -5.35% (inactive)

----------
Test: NCI Yeast Anticancer Drug Screen. Data for the bub3 strain (AID 167)
Settings: S. cerevisiae bub3 mutant strain, at 5.0 µM (retest, dose inferred, filed as 0.5), active compounds read high
Compounds without any hit were thinned out: in the full panel of roughly 79,000, 15% have a hit.
Answer No if growth inhibition is under 10%, and Yes if it is 10% or more.

Reference set, count: 2
{"compound": "CC(=O)c1cc2c(cc1O)C(C)(C)CCC2(C)C", "qualitative label": "No"}
{"compound": "O=C1CN2CCCCC2CN1 (configuration not stated)", "qualitative label": "No"}

Request: Reported growth inhibition reaches at least 10% for Cc1ccc(NC(=O)CBr)cc1 ?
Result: Yes

Request: Quick check, growth inhibition >= 10%? CCOC(=O)[C]1([Pb]([CH3])([CH3])[CH3])N=NC(C(=O)OC)=C1C(=O)OC (configuration not stated)
Result: No

Request: Please tell me: is the compound NC(=S)C1=C(N)Oc2c(c(=O)oc3ccccc23)C1c1ccc(Br)cc1 (configuration not stated) at or over 10% in terms of growth inhibition?
Result: No

Request: Quick check, growth inhibition >= 10%? CCOc1c(Br)cc(N=Cc2ccc(N(CCCl)CCCl)c(OC)c2)cc1Br
Result: No

Request: Say whether CC(=O)CC(=O)Nc1c(C)[c]([Hg][O]C(C)=O)c(C)[c]([Hg][O]C(C)=O)[c]1[Hg][O]C(C)=O shows growth inhibition of 10% or more.
Result: Yes

Request: Say whether O=C(CBr)Nc1ccccc1 shows growth inhibition of 10% or more.
Result: Yes

Request: Form field: growth inhibition at least 10%? Entry: CC[PH+](CC)CC[S-].CC[PH+](CC)CC[S-].[Au+].[Au+]
Result: Yes

Request: Confirm if growth inhibition reported for the compound O=c1ccc(N=Cc2ccc(N(CCCl)CCCl)cc2)ccc1O is 10% or above.
Result: Yes

Request: Could you please find out whether Cc1cc([N+](=O)[O-])c2ccccc2[n+]1[O-] has growth inhibition that meets 10% or exceeds it?
Result: Yes

Request: Record N#C[S-].[Ce+3].c1cnc2c(c1)ccc1cccnc12.c1cnc2c(c1)ccc1cccnc12.c1cnc2c(c1)ccc1cccnc12 ; criterion: growth inhibition no lower than 10%. Met?
Result: Yes

Request: Exam item: decide whether the reported growth inhibition for [pH]1p2[pH]p3p1p3[pH]2.c1cc[c]([Ge]([c]2ccccc2)[c]2ccccc2)cc1.c1cc[c]([Ge]([c]2ccccc2)[c]2ccccc2)cc1.c1cc[c]([Ge]([c]2ccccc2)[c]2ccccc2)cc1 is at least 10%.
Result: No

Request: Reported growth inhibition at or above 10%? c1cc2n[pH]nc2cn1 (configuration not stated)
Result: No

Request: Item O=C1c2ccccc2C[CH]1[Hg][Cl] (configuration not stated) with growth inhibition of 10% or above?
Result: Yes

Request: Determine whether measured growth inhibition meets or exceeds 10% for CC(=O)O[C@H]1CCC2[C@@H]3CCC4Nc5oncc5C[C@]4(C)C3CC[C@@]21C (some centres not stated)
Result: No

Request: Confirm if growth inhibition reported for the compound Clc1nc(Cl)nc(Nc2ccccc2Cl)n1 is 10% or above.
Result: Yes

Request: Check this compound for growth inhibition at or above 10%: CC[n+]1c(/C=C/c2ccc(N(CCCl)CCCl)cc2)ccc2cc(Br)ccc21
Result: Yes

Request: Could you tell me if the measured growth inhibition of CCC[CH2][Sn]1([CH2]CCC)[O]CC(Cc2ccccc2)[O]1 (configuration not stated) reaches 10% or more?
Result: Yes

Request: Reported growth inhibition reaches at least 10% for CC(=O)c1cc(CN(CCCl)CCCl)c(O)c(CN(CCCl)CCCl)c1O ?
Result: No

----------
Assay: NCI Yeast Anticancer Drug Screen. Data for the mec2-1 strain (AID 157)
Conditions: S. cerevisiae mec2-1 strain, at 50.0 µM (retest, dose inferred, filed as 5.0), active compounds read high
This is part of a sample that, as a whole, favours compounds with a hit. Of some 79,000 tested, about 15% had one in any assay.
We begin with a simple list: items and their reported growth inhibition.
Lab book: enter the figure in %, no units written.

Request: # input compound: Cc1c(=O)n(O)c2ccccc2[n+]1[O-] ; wanted: its growth inhibition
Result: 31

Request: Please report the recorded growth inhibition for CC(=O)c1ccc([As]=O)cc1 (stereo unspecified) .
Result: 100

Request: So what's the measured growth inhibition for this one? COc1c(Cl)[c]([Hg][O]C(C)=O)c(NCC(C)=O)c(OC)[c]1[Hg][O]C(C)=O
Result: 94

Request: Which growth inhibition is listed for Oc1c(Cl)c(Cl)c(O)c(Cl)c1Cl ?
Result: 99

Request: Please report the recorded growth inhibition for COC1=C(Cl)C(=O)c2ccccc2C1=O .
Result: 99

Request: Could you tell me which growth inhibition is on file for COC(=O)[C@]1(C)CCC[C@]2(C)[C@H]3CC4OO[C@@]3(CC[C@H]21)[C@H]1O[C@@]41C(C)C ?
Result: 99

----------
Experiment: NCI Yeast Anticancer Drug Screen. Data for the sgs1 mgt1 strain (AID 161);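 also: 0% = growth of cultures given vehicle only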
Conditions: S. cerevisiae sgs1 mgt1 strain, at 50.0 µM
The panel holds about 79,000 compounds, 15% with a hit somewhere; the sample as a whole holds those more often. Active and inactive are the calls of the source. Cut-off read from the data, not from the text of the source: active = growth inhibition above about 70%; inactive = the rest.
Would you mind answering with one of these outcomes? t = active, f = inactive

Example cases with answers are listed next.
{"molecule": "CCCCOC(=O)C(O)CF (stereo not given)", "qualitative label": "f"}
{"molecule": "COc1ccc2c3c1O[C@H]1C(Br)C=C[C@H]4[C@@H](C2)N(C)CC[C@]314 (stereo not given in full)", "qualitative label": "f"}
{"molecule": "NC(=O)C(Cl)(Cl)CCl", "qualitative label": "f"}
{"molecule": "C1CN([PH+](N2CC2)N2CC2)CCO1.[C-]#[O+].[C-]#[O+].[C-]#[O+].[C-]#[O+].[C-]#[O+].[Mo]", "qualitative label": "f"}
{"molecule": "COc1ccc(P2(=S)OC(C)(C)C(C)(C)O2)cc1", "qualitative label": "f"}
{"molecule": "COc1ccc(C[As+](c2ccccc2)(c2ccccc2)c2ccccc2)cc1", "qualitative label": "t"}

Request: Recorded test call requested for CCC(=O)O.[Ag]
Result: t

Values were extracted from PubChem BioAssay (NCI).
